Target: T1, Monkey CD96-3xFlag (cyno-CD96-3xFLAG) (cynomolgus monkey)
T1 construct: Signal peptide marked only by lost underlining; also called cynomolgus CD96
T1 chain: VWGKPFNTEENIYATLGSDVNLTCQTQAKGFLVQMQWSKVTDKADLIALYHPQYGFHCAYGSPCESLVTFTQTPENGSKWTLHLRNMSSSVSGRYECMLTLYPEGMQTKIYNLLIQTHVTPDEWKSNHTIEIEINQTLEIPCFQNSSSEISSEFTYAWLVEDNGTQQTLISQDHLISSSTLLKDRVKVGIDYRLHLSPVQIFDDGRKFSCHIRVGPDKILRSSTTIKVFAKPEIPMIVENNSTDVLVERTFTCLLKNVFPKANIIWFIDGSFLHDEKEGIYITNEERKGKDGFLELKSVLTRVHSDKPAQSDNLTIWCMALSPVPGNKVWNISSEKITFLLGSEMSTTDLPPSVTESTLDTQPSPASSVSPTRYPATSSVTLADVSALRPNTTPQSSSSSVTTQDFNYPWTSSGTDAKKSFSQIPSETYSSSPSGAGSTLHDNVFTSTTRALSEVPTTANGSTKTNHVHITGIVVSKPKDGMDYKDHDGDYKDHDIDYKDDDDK
Experiment: ELISA, cyno-CD96-3xFLAG coated
Method: The cross-reactive binding capacity of the anti-CD96 antibody to monkey CD96 was tested by ELISA to determine the binding of the antibody to cynomolgus CD96 protein. The 3×FLAG-tagged CD96 fusion protein was used to coat the microtiter plate, and the intensity of the signal after adding with the antibody was used for evaluating the binding activity of the antibody and cynomolgus CD96. The specific experimental method is as follows: […]
measured-quantity: EC50
Hi, when you answer, please include the unit after the number. Thanks!

binder | EC50
ch1719 (antibody, human IgG4 S228P, kappa, V domains shown, also called chimeric antibody corresponding to m1719) VH: QVQLKESGPGLVAPSQSLSITCTVSGFSLISYGVSWVRQPPGKGLEWLGVIWGDGNTNYHSVLISRLSIRKDDSKSQVFLKLNSLQTDDTATYYCAKNNYYGSRYGYPMDYWGQGTSVTVSS VL: DIVMTQSHKFMSTSVGDRVSITCKATQDVGTAVAWYQQKPGHSPKLLIYWASTRHTGVPERFTGSGSGTDFTLTIDNVQSEDLADYFCQQYGSSVLTFGAGTKVELRR | 0.047 nM

Data point: h1722-017 (antibody, V domains shown) VH: EVQLVQSGAEVKKPGSSVKVSCKASGGTFSDYWMHWVRQAPGQGLEWIGMLHPKSGTTSFNEKFKIRVTITADKSTSTAYMELSSLRSEDTAVYYCASDYSGPFAYWGQGTLVTVSS VL: DIQLTQSPSSLSASVGDRVTITCSASSSVNYIHWYQQKPGKAPKRWIFDTSKLASGVPSRFSGSGSGTDYTLTISSLQPEDFATYYCQQWRSNPLTFGQGTKLEIK ; EC50 = 0.047 nM
